tested on: S. aureus 101; test: MIC determination; type: cell-based, Staphylococcus aureus; settings: Staphylococcus aureus, 101, 18 h; read-out: Minimum inhibitory concentrations (MIC)
Positions of bridges follow the written chain, without caps; N, C: chain ends. Non-standard residues stand in square brackets, D forms with d. Residues, ends and D or L forms follow the SMILES beside them. *: point of attachment. Ileψ(thiazoline)Cys = CC[C@H](C)[C@H](N)C1=N[C@H](C(=O)*)CS1; dOrn = NCCC[C@@H](N)C(=O)O
OUTCOME MEASURE: MIC (µg/mL)
All answers are understood in µg/mL, so give the number only.

What measured MIC goes with `Cc1onc(-c2ccccc2)c1C(=O)N[C@@H]1C(=O)N2[C@@H]1SC(C)(C)[C@@H]2C(=O)O` ?
8

What measured MIC goes with `CCC[C@@H]1C[C@@H](C(=O)N[C@@H]([C@H]2O[C@H](SC)[C@H](O)[C@@H](O)[C@H]2O)[C@H](C)Cl)N(C)C1` ?
0.25

What measured MIC goes with `C[C@@H]1O[C@@H]1P(=O)(O)O` ?
64

What measured MIC goes with CO[C@@]1(NC(=O)C(C(=O)O)c2ccc(O)cc2)C(=O)N2C(C(=O)O)=C(CSc3nnnn3C)CO[C@@H]21 (stereo partly drawn) ?
4

What measured MIC goes with CC[C@H](C)[C@H](N)C1=N[C@H](C(=O)N[C@@H](CC(C)C)C(=O)N[C@H](CCC(=O)O)C(=O)N[C@H](C(=O)N[C@H]2CCCCNC(=O)[C@H](CC(N)=O)NC(=O)[C@@H](CC(=O)O)NC(=O)[C@H](Cc3cnc[nH]3)NC(=O)[C@@H](Cc3ccccc3)NC(=O)[C@H]([C@@H](C)CC)NC(=O)[C@@H](CCCN)NC2=O)[C@@H](C)CC)CS1 [Bacitracin] ({Ileψ(thiazoline)Cys}-L[dE]IK[dOrn]I[dF]H[dD]N; lactam 4-C) ?
32

What measured MIC goes with `CN(C)[C@@H]1C(O)=C(C(N)=O)C(=O)[C@@]2(O)C(O)=C3C(=O)c4c(O)cccc4[C@@](C)(O)[C@H]3C[C@@H]12` ?
128

What measured MIC goes with `COc1ccc(C[C@H](N)C(=O)N[C@H]2[C@@H](O)[C@H](n3cnc4c(N(C)C)ncnc43)O[C@@H]2CO)cc1` ?
16

What measured MIC goes with `CCn1cc(C(=O)O)c(=O)c2cc(F)c(N3CCNCC3)cc21` ?
128

What measured MIC goes with `NC(=O)c1cc[n+](CC2=C(C(=O)O)N3C(=O)[C@@H](NC(=O)[C@@H](c4ccccc4)S(=O)(=O)[O-])[C@H]3SC2)cc1` ?
64

====

system: S. pneumoniae 1/1; assay: MIC determination; assay type: cell-based, Streptococcus pneumoniae; conditions: Streptococcus pneumoniae; S. pneumoniae 1/1; 18 hours at 37° C., 5% CO2; read-out: Minimum inhibitory concentrations (MIC)
OUTCOME MEASURE: MIC (µg/mL)
All answers are understood in µg/mL, so give the number only.

Give the reported MIC for Cc1onc(-c2ccccc2Cl)c1C(=O)N[C@@H]1C(=O)N2[C@@H]1SC(C)(C)[C@@H]2C(=O)O [Cloxacillin] (system: S. pneumoniae 1/1).
64

Give the reported MIC for CCn1cc(C(=O)O)c(=O)c2cc(F)c(N3CCNC(C)C3)c(F)c21 (stereo not shown) [Lomefloxacin] (system: S. pneumoniae 1/1).
8
